Just for reference, the supplement of paper PMC10126150 is where these values come from.

Test system: ATP;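 also: ATP exposure 15 min at 22 °C before imaging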
assayInfo: switch fluorescence ratio, 500 uM ATP over buffer (Cy3 cluster intensity, sum of 5 cycles each) (fold (ratio)); higher = stronger signal-on switching upon ATP binding; sequences stand for … in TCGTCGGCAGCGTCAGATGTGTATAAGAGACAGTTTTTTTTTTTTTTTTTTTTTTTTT…TC
assaySetup: aptamer strand: ATP DNA aptamer (quencher-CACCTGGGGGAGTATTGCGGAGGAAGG + anchor), 100 nM annealed; ATP concentration: 500 uM
measuredProperty: switch fluorescence ratio

INSERT INTO measurements (monomersequence, measuredproperty, experimentalresult) VALUES
  ('ATGCACTGCT', 'switch fluorescence ratio', 1.04),
  ('GGGACATTCA', 'switch fluorescence ratio', 1.03),
  ('CGTGCGGTAT', 'switch fluorescence ratio', 0.987),
  ('ATAAAAAACT', 'switch fluorescence ratio', 0.984),
  ('GAGGGCTACT', 'switch fluorescence ratio', 1.04),
  ('ACGGGCCTTC', 'switch fluorescence ratio', 1.03),
  ('TCGGTGACAG', 'switch fluorescence ratio', 1.01),
  ('TATGTTAAC', 'switch fluorescence ratio', 1.02);

---

Tested on: ATP;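 also: ATP exposure 15 min at 22 °C before imaging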
assayInfo: switch fluorescence ratio, 500 uM ATP over buffer (Cy3 cluster intensity, sum of 5 cycles each) (fold (ratio)); higher = stronger signal-on switching upon ATP binding; sequences stand for … in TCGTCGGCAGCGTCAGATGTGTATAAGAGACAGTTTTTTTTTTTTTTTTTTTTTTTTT…TC
assaySetup: aptamer strand: ATP DNA aptamer (quencher-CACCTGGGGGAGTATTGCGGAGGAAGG + anchor), 100 nM annealed; ATP concentration: 500 uM
Parameter: switch fluorescence ratio. Scope: all listed entries.
measuredProperty: switch fluorescence ratio

INSERT INTO measurements (monomersequence, measuredproperty, experimentalresult) VALUES
  ('AATGGGATAC', 'switch fluorescence ratio', 1.16),
  ('GGTGTGGATC', 'switch fluorescence ratio', 1.02),
  ('ACTAAGGGAG', 'switch fluorescence ratio', 1.01),
  ('ATGTATACTT', 'switch fluorescence ratio', 1.09),
  ('TTTGTGAGAA', 'switch fluorescence ratio', 1.02),
  ('AGGCATCGGA', 'switch fluorescence ratio', 0.995),
  ('GATTTCCTGG', 'switch fluorescence ratio', 1.01),
  ('GAGTTATTTT', 'switch fluorescence ratio', 0.976),
  ('TTTGGACTAT', 'switch fluorescence ratio', 1.01),
  ('GTGCGATTGG', 'switch fluorescence ratio', 1.03),
  ('GAGTATTTTC', 'switch fluorescence ratio', 1.01),
  ('TTGCGCGCTA', 'switch fluorescence ratio', 0.98),
  ('GGGTTCGTTA', 'switch fluorescence ratio', 0.993),
  ('CGAGTGTCAG', 'switch fluorescence ratio', 0.976),
  ('CGGGTGGGGA', 'switch fluorescence ratio', 1.01),
  ('AAACATTTCA', 'switch fluorescence ratio', 0.976),
  ('GCGGGGGAAA', 'switch fluorescence ratio', 1.02),
  ('TCTGTAAGGG', 'switch fluorescence ratio', 0.978),
  ('TTTACTCGGC', 'switch fluorescence ratio', 1.08),
  ('ACAGCTAAAA', 'switch fluorescence ratio', 1.02),
  ('CGGCTTGGTG', 'switch fluorescence ratio', 0.996),
  ('GCCAGCGATC', 'switch fluorescence ratio', 2.23),
  ('GGGTCTAAG', 'switch fluorescence ratio', 0.987),
  ('AAAATGGCAG', 'switch fluorescence ratio', 1),
  ('GTGGACGG', 'switch fluorescence ratio', 0.973),
  ('TTGCTTTGGG', 'switch fluorescence ratio', 1.01),
  ('ATGGAGCTTG', 'switch fluorescence ratio', 0.983),
  ('TTGGGATGGT', 'switch fluorescence ratio', 1.02),
  ('TAGTTCGGTG', 'switch fluorescence ratio', 0.988),
  ('AATGGGACTT', 'switch fluorescence ratio', 1.02),
  ('CGTATGGCCT', 'switch fluorescence ratio', 0.958);

---

Parameter: switch fluorescence ratio. Scope: all listed entries.
Test system: ATP;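 also: ATP exposure 15 min at 22 °C before imaging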
assayInfo: switch fluorescence ratio, 500 uM ATP over buffer (Cy3 cluster intensity, sum of 5 cycles each) (fold (ratio)); higher = stronger signal-on switching upon ATP binding; sequences stand for … in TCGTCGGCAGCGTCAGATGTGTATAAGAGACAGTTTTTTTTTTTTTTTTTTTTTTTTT…TC
assaySetup: aptamer strand: ATP DNA aptamer (quencher-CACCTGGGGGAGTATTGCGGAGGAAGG + anchor), 100 nM annealed; ATP concentration: 500 uM
measuredProperty: switch fluorescence ratio

INSERT INTO measurements (monomersequence, experimentalresult) VALUES
  ('GCTATTAGGA', 0.984),
  ('TGGGTGAAGC', 0.991),
  ('TTGGTGGCGT', 0.995),
  ('TTGTTCGGTT', 0.998),
  ('GGTGATATAG', 0.984),
  ('AGGTGCTGTG', 1.01),
  ('GGTTTAGTGG', 1),
  ('TTATGAACTT', 1),
  ('CAAGAAATCT', 1.01),
  ('GAGGGTGTCA', 0.995),
  ('AAAGAAGGGA', 0.981),
  ('ATTGTAGGC', 1.01),
  ('GGCGGTACGG', 1.01),
  ('AGCTGGCTGT', 0.974),
  ('TCATGGGTTT', 0.997),
  ('TATGCCTTTG', 0.987),
  ('TTATATGTGT', 1.01),
  ('ACTCGAGGGG', 1.01),
  ('AAGGATTATA', 0.985),
  ('TAGGTTTGCA', 1.02),
  ('TTTTAGACGT', 0.991),
  ('GGGTGAGGAT', 1),
  ('GGATTTAGTA', 1.01);

---

System: ATP;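 also: ATP exposure 15 min at 22 °C before imaging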
assayInfo: switch fluorescence ratio, 500 uM ATP over buffer (Cy3 cluster intensity, sum of 5 cycles each) (fold (ratio)); higher = stronger signal-on switching upon ATP binding; sequences stand for … in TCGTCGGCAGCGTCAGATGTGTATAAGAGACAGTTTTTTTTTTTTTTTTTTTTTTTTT…TC
assaySetup: aptamer strand: ATP DNA aptamer (quencher-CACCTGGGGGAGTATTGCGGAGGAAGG + anchor), 100 nM annealed; ATP concentration: 500 uM
Parameter: switch fluorescence ratio. Scope: all listed entries.
measuredProperty: switch fluorescence ratio

INSERT INTO assay_data (monomersequence, experimentalresult) VALUES
  ('AATATTTTCC', 1.04),
  ('ACGAAGTTTT', 1.02),
  ('AAGGTATCTG', 1.03),
  ('ATGTGGAGTC', 1.05),
  ('AGGGTTTGTT', 1.02),
  ('ATCTATTATT', 1.01);

---

Parameter: switch fluorescence ratio. Scope: all listed entries.
System: ATP;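 also: ATP exposure 15 min at 22 °C before imaging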
assayInfo: switch fluorescence ratio, 500 uM ATP over buffer (Cy3 cluster intensity, sum of 5 cycles each) (fold (ratio)); higher = stronger signal-on switching upon ATP binding; sequences stand for … in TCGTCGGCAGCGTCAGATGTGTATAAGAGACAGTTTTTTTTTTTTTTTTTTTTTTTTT…TC
assaySetup: aptamer strand: ATP DNA aptamer (quencher-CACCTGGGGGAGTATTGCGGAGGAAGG + anchor), 100 nM annealed; ATP concentration: 500 uM
measuredProperty: switch fluorescence ratio

INSERT INTO results (monomersequence, systemundertest, measuredproperty, experimentalresult) VALUES
  ('TTTGGATGGT', 'ATP', 'switch fluorescence ratio', 0.996),
  ('AGGAGTTCTT', 'ATP', 'switch fluorescence ratio', 0.989),
  ('TGAGTGCAGC', 'ATP', 'switch fluorescence ratio', 1.08),
  ('TATTTTAAAA', 'ATP', 'switch fluorescence ratio', 0.986),
  ('GGGGGACCGG', 'ATP', 'switch fluorescence ratio', 1.01),
  ('TAACTAGGAG', 'ATP', 'switch fluorescence ratio', 1.12),
  ('TCGATGCAGC', 'ATP', 'switch fluorescence ratio', 1.45),
  ('AGATGTTGTT', 'ATP', 'switch fluorescence ratio', 1.01),
  ('CGTCAATTGA', 'ATP', 'switch fluorescence ratio', 1.01),
  ('CGAACTTGGA', 'ATP', 'switch fluorescence ratio', 0.988),
  ('GTGGGGGACA', 'ATP', 'switch fluorescence ratio', 0.993),
  ('CCGAACGTTT', 'ATP', 'switch fluorescence ratio', 2.31),
  ('TGGGGGTCGC', 'ATP', 'switch fluorescence ratio', 1.01),
  ('TTTTCTAGGT', 'ATP', 'switch fluorescence ratio', 0.982),
  ('TCTGTTCATG', 'ATP', 'switch fluorescence ratio', 1),
  ('TCAAATGGGC', 'ATP', 'switch fluorescence ratio', 0.997),
  ('GCGCTACGGG', 'ATP', 'switch fluorescence ratio', 1.01),
  ('CTCGATAGGA', 'ATP', 'switch fluorescence ratio', 1.02),
  ('GGGGTAGACA', 'ATP', 'switch fluorescence ratio', 1),
  ('TCAAGGTTCT', 'ATP', 'switch fluorescence ratio', 0.998),
  ('TAGAAAAGGT', 'ATP', 'switch fluorescence ratio', 0.974),
  ('AGGTTTGCGA', 'ATP', 'switch fluorescence ratio', 1.02),
  ('TGTCATCTAC', 'ATP', 'switch fluorescence ratio', 1.02),
  ('TGTGGCGATT', 'ATP', 'switch fluorescence ratio', 1.02),
  ('AGTGGGGCGC', 'ATP', 'switch fluorescence ratio', 1.29),
  ('ATATGGATGA', 'ATP', 'switch fluorescence ratio', 0.96),
  ('TTTTATATAT', 'ATP', 'switch fluorescence ratio', 1.01),
  ('GTGAAAGATT', 'ATP', 'switch fluorescence ratio', 1.02),
  ('TCTGAGGTGC', 'ATP', 'switch fluorescence ratio', 1.06),
  ('ATTGTGTTTT', 'ATP', 'switch fluorescence ratio', 0.99),
  ('CGCGAGAATA', 'ATP', 'switch fluorescence ratio', 1.01),
  ('TAGGGAATGA', 'ATP', 'switch fluorescence ratio', 1),
  ('TGAATACTTT', 'ATP', 'switch fluorescence ratio', 0.996),
  ('TTTCTTCAAA', 'ATP', 'switch fluorescence ratio', 0.997),
  ('ACGTTGCACA', 'ATP', 'switch fluorescence ratio', 1.18),
  ('GGTGAAGCTG', 'ATP', 'switch fluorescence ratio', 1.05),
  ('GCCACACTAG', 'ATP', 'switch fluorescence ratio', 1.06),
  ('TGTAAAAAT', 'ATP', 'switch fluorescence ratio', 1.01),
  ('TGTTATAGGG', 'ATP', 'switch fluorescence ratio', 1.03),
  ('TCTCGCCGGG', 'ATP', 'switch fluorescence ratio', 1.02),
  ('GTAATCTCTG', 'ATP', 'switch fluorescence ratio', 1.01),
  ('TGTGGCGTTT', 'ATP', 'switch fluorescence ratio', 1.04),
  ('TCAATTAACT', 'ATP', 'switch fluorescence ratio', 1.03),
  ('TTGGGCGTTC', 'ATP', 'switch fluorescence ratio', 1.12),
  ('GGGGGTATTG', 'ATP', 'switch fluorescence ratio', 0.99),
  ('AGATTTTTGG', 'ATP', 'switch fluorescence ratio', 1),
  ('TTATATTTTG', 'ATP', 'switch fluorescence ratio', 0.998),
  ('TTACTTGAGA', 'ATP', 'switch fluorescence ratio', 0.99),
  ('GAGGTTATTG', 'ATP', 'switch fluorescence ratio', 0.99),
  ('TTGGCGGGTT', 'ATP', 'switch fluorescence ratio', 1.01),
  ('GAGTTGAGTT', 'ATP', 'switch fluorescence ratio', 1.01),
  ('ATGTGATGGC', 'ATP', 'switch fluorescence ratio', 0.981),
  ('TAGGGAACGT', 'ATP', 'switch fluorescence ratio', 1.04),
  ('TCCAGGGTTT', 'ATP', 'switch fluorescence ratio', 1.06),
  ('CTTTAGTCAG', 'ATP', 'switch fluorescence ratio', 1.01),
  ('GATCGGTGCT', 'ATP', 'switch fluorescence ratio', 1),
  ('GCTTACGGGA', 'ATP', 'switch fluorescence ratio', 1.03),
  ('GACGGGTTTC', 'ATP', 'switch fluorescence ratio', 0.991),
  ('TTCGGGAACT', 'ATP', 'switch fluorescence ratio', 1),
  ('AGGCATTAAT', 'ATP', 'switch fluorescence ratio', 1.01),
  ('TCTTAGTTCA', 'ATP', 'switch fluorescence ratio', 0.983),
  ('AAATGAAAGT', 'ATP', 'switch fluorescence ratio', 0.995),
  ('GCCTCAGGAT', 'ATP', 'switch fluorescence ratio', 0.996),
  ('TGATTATCTT', 'ATP', 'switch fluorescence ratio', 1.05),
  ('GTGGGAGCTG', 'ATP', 'switch fluorescence ratio', 0.99);
